# assay.target: MCT4 (Homo sapiens, UniProt O15427)
# Construct: MDA-MB-231 cells—a triple negative human breast cancer cell line expressing exclusively MCT4 (confirmed by Western blotting)
# Sequence (O15427 2-465 limits assumed): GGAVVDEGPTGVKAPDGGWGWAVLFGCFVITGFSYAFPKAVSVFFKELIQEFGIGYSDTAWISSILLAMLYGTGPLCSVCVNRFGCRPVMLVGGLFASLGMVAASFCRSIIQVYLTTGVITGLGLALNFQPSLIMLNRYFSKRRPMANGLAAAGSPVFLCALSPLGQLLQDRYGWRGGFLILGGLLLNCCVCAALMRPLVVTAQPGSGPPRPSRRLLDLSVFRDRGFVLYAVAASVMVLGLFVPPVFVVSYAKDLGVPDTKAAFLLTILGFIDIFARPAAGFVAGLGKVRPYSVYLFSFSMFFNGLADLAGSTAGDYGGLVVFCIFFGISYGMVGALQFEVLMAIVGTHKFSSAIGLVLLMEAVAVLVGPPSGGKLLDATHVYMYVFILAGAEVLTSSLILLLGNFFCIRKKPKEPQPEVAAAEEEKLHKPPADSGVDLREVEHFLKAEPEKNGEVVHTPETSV
# assay.explanation: MCT4 transport assay (L-lactate influx, BCECF-AM intracellular pH)
# test.conditions: MDA-MB-231 cells expressing exclusively MCT4
pIC50: −log10 of the molar value.
Listed next: entries and their corresponding pIC50.

// worked examples, pIC50 included
>>> meas_value("Cc1nc2nc(C)c(O[C@@H]3CCN(c4cnc(C56CC(C(=O)N7CCOCC7)(C5)C6)nc4)C3)c(C)n2n1")
"6.30 to 7.00"
>>> meas_value("Cc1nc2nc(C)c(O[C@@H]3CCN(c4ccc(-c5ccc(C(=O)N6CC(C(=O)N(C)C)C6)nn5)cc4)C3)c(C)n2n1")
"> 7.00"
>>> meas_value("Cc1nc2nc(C)c(O[C@@H]3CCN(c4ccc(-c5ccc(C(=O)N6CC(C(N)=O)C6)nn5)cc4)C3)c(C)n2n1")
"6.00 to 6.30"

Form field: reported pIC50 of Cc1nc2nc(C)c(O[C@@H]3CCN(c4ccc(-c5ccc(CN6CC(N(C)C)C6)nn5)cc4)C3)c(C)n2n1 > 7.00

Quick one: pIC50 of Cc1nc2nc(C)c(O[C@@H]3CCN(c4cnc(C56CC(CN7CCOCC7)(C5)C6)nc4)C3)c(C)n2n1 ? > 7.00

Suppose we examine the compound COC1CN(Cc2ccc(-c3ccc(N4CC[C@@H](Oc5c(C)nc6nc(C)nn6c5C)C4)cc3)nn2)C1 ; what pIC50 value has been reported? > 7.00

Which pIC50 value belongs to Cc1nc2nc(C)c(O[C@@H]3CCN(c4ccc(-c5ccc(C(=O)N6CCOCC6)nn5)cc4)C3)c(C)n2n1 ? > 7.00

// query pIC50 value for entry Cc1cn2c(C)c(O[C@@H]3CCN(c4ccc(-c5ccc(CN6CCOCC6)nn5)cc4)C3)c(C)nc2n1 6.30 to 7.00

FYI, the data here is from patent US20230192704A1.
